# Subject of test: HLA DQ molecule DQB1*0502 (human)
# Assay text: inhibition of radiolabeled peptide binding to purified HLA DQ
Measured quantity: IC50 (µM)
Just the number please, in µM, no unit attached.

Completed entries (count: 3):
Binder	IC50 / µM
DINVGFKAAVAAAAG [Poa p 5 peptide, position 56 (Peptide ID 3324.1571)]	5.41
FKAAVAAAAGAPPAD [Poa p 5 peptide, position 61 (Peptide ID 3324.1575)]	6.78
EGTVDFIFGEARSLY [Sal k 1 1 peptide, position 191 (Peptide ID 3324.1590)]	6.85

We now examine a further binder.
Query string: What measured IC50 goes with ATPEAKFDSFVAAFT [Poa p 5 peptide, position 121 (Peptide ID 3324.1570)] ?
Result string: 8

# credit: patent US20150004189A1
